These measurements were taken from patent US7163800B2.

# MEASURED ON: human vasopressin V2 receptor (V2R) (Homo sapiens, UniProt P30518)
# Sequence (P30518 whole entry): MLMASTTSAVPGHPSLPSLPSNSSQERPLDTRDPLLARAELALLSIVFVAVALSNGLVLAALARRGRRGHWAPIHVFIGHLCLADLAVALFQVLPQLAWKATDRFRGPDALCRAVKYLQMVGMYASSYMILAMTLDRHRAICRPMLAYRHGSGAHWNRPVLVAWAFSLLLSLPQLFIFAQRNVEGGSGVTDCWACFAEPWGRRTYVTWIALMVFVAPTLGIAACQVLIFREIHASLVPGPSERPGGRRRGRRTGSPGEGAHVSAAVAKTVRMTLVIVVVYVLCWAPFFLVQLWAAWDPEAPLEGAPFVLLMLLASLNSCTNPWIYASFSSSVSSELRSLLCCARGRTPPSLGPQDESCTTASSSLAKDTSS
# METHOD DESCRIPTION: arrestin-GFP localization (Fgrains) assay in U20S-V2R/ArrGFP cells, arginine vasopressin stimulated
# Type: cell-based
# PROTOCOL CONDITIONS: V2R RT plate: room temperature, atmospheric CO2; 100 nM arginine vasopressin
Criterion: Min (fitted minimum Fgrains) meeting or surpassing 40. Met: Fulfilled. Not met: Not fulfilled.

Reference set, count: 6
In [3]: df
Out[3]:
                                   molecule  qualitative_label
0  Cn1cc(C2=C(c3c4n(c5ccccc35)CCC(CN)C4)C(=O)NC2=O)c2ccccc21 (centres unmarked)          Fulfilled
1  Cl.NCCCn1cc(C2=C(c3c[nH]c4ccccc34)C(=O)NC2=O)c2ccccc21 [Bisindolylmaleimide III, Hydrochloride]      Not fulfilled
2  NCCCn1cc(C2=C(c3c[nH]c4ccccc34)C(=O)NC2=O)c2ccccc21 [Bisindolylmaleimide III]          Fulfilled
3  CN1CCCC1CCn1cc(C2=C(c3c[nH]c4ccccc34)C(=O)NC2=O)c2ccccc21 (centres unmarked) [Bisindolylmaleimide II]      Not fulfilled
4  O=C1NC(=O)C(c2cn(CCCN3CCNCC3)c3ccccc23)=C1c1c[nH]c2ccccc12 [Bisindolylmaleimide VII]      Not fulfilled
5  C[n+]1cc2c3c(ccc2c2ccc4cc5c(cc4c21)OCO5)OCO3 [Sanguinarine Chloride (LOPAC), Sanguinarine Chloride]          Fulfilled

Item Cn1cc(C2=C(c3cn(CCCN)c4ccccc34)C(=O)NC2=O)c2ccccc21 with Min (fitted minimum Fgrains) of 40 or above?
Fulfilled

Item C[n+]1cc2c3c(ccc2c2ccc4cc5c(cc4c21)OCO5)OCO3 [Sanguinarine Chloride (S5890), Sanguinarine Chloride] with Min (fitted minimum Fgrains) of 40 or above?
Not fulfilled
